Assay: xn = mol fraction of the nth substance listed
Conditions: 293.15 K; 100 kPa; Liquid; Vibrating tube method; x1 = 0.05
measurement label: mass density (kg/m3)

[[record]]
compound = "[Cl-].[Li+] [lithium chloride] + O"
measurement_label = "mass density"
endpoint_value = 1064.1

[[record]]
compound = "[F-].[Rb+] [rubidium fluoride (RbF)] + O"
measurement_label = "mass density"
endpoint_value = 1250.3

[[record]]
compound = "[I-].[Rb+] [rubidium iodide (RbI)] + O"
measurement_label = "mass density"
endpoint_value = 1423.2

[[record]]
compound = "[Cl-].[K+] [potassium chloride] + O"
measurement_label = "mass density"
endpoint_value = 1123.6

[[record]]
compound = "[I-].[Li+] [lithium iodide] + O"
measurement_label = "mass density"
endpoint_value = 1268.1


* * *

Listed below: mass density values for each entry.
Experiment: xn = mol fraction of the nth substance listed
Conditions: 293.15 K; 100 kPa; Liquid; Vibrating tube method; x1 = 0.03
measurement label: mass density (kg/m3)

[[record]]
molecule = "[Cs+].[F-] [cesium fluoride (CsF)] + O"
endpoint_value = 1210.1

[[record]]
molecule = "[Br-].[Li+] [lithium bromide] + O"
endpoint_value = 1101.8

[[record]]
molecule = "[Cl-].[Li+] [lithium chloride] + O"
endpoint_value = 1038.5

[[record]]
molecule = "[Br-].[K+] [potassium bromide] + O"
endpoint_value = 1137.7

[[record]]
molecule = "[Cl-].[K+] [potassium chloride] + O"
endpoint_value = 1074.8

[[record]]
molecule = "[Cl-].[Na+] [sodium chloride] + O"
endpoint_value = 1066.2

[[record]]
molecule = "[Cs+].[I-] [cesium iodide] + O"
endpoint_value = 1320.7

[[record]]
molecule = "[F-].[K+] [potassium fluoride] + O"
endpoint_value = 1080.5


* * *

Test: xn = mol fraction of the nth substance listed
Conditions: 303.15 K; 100 kPa; Liquid; Vibrating tube method; x1 = 0.01
Numbers after ± are expanded uncertainties.
Listed below: mass density values for each entry.
measurement label: mass density

[[record]]
molecule = "[I-].[Rb+] [rubidium iodide (RbI)] + O"
endpoint_value = "1084.2 ± 0.2 kg/m3"

[[record]]
molecule = "[I-].[K+] [potassium iodide] + O"
endpoint_value = "1061.9 ± 0.2 kg/m3"

[[record]]
molecule = "[Br-].[Na+] [sodium bromide] + O"
endpoint_value = "1040 ± 0.2 kg/m3"

[[record]]
molecule = "[Br-].[Cs+] [cesium bromide] + O"
endpoint_value = "1086.7 ± 0.2 kg/m3"

[[record]]
molecule = "[Cs+].[F-] [cesium fluoride (CsF)] + O"
endpoint_value = "1068 ± 0.2 kg/m3"


* * *

Listed below: mass density values for each entry.
Experiment: xn = mol fraction of the nth substance listed
Settings: 313.15 K; 100 kPa; Liquid; Vibrating tube method; x1 = 0.05
measurement label: mass density (kg/m3)

[[record]]
molecule = "[Cs+].[F-] [cesium fluoride (CsF)] + O"
measurement_label = "mass density"
u = "kg/m3"
endpoint_value = 1340.4

[[record]]
molecule = "[Br-].[Cs+] [cesium bromide] + O"
measurement_label = "mass density"
u = "kg/m3"
endpoint_value = 1426

[[record]]
molecule = "[I-].[Li+] [lithium iodide] + O"
measurement_label = "mass density"
u = "kg/m3"
endpoint_value = 1257.2

[[record]]
molecule = "[Br-].[K+] [potassium bromide] + O"
measurement_label = "mass density"
u = "kg/m3"
endpoint_value = 1217.4

[[record]]
molecule = "[I-].[Na+] [sodium iodide] + O"
measurement_label = "mass density"
u = "kg/m3"
endpoint_value = 1296.5

[[record]]
molecule = "[Cl-].[Li+] [lithium chloride] + O"
measurement_label = "mass density"
u = "kg/m3"
endpoint_value = 1057.9

[[record]]
molecule = "[Br-].[Na+] [sodium bromide] + O"
measurement_label = "mass density"
u = "kg/m3"
endpoint_value = 1206.2

[[record]]
molecule = "[I-].[Rb+] [rubidium iodide (RbI)] + O"
measurement_label = "mass density"
u = "kg/m3"
endpoint_value = 1409.2

[[record]]
molecule = "[Cs+].[I-] [cesium iodide] + O"
measurement_label = "mass density"
u = "kg/m3"
endpoint_value = 1504.5

[[record]]
molecule = "[F-].[K+] [potassium fluoride] + O"
measurement_label = "mass density"
u = "kg/m3"
endpoint_value = 1126.5

[[record]]
molecule = "[Cl-].[Na+] [sodium chloride] + O"
measurement_label = "mass density"
u = "kg/m3"
endpoint_value = 1101.6

[[record]]
molecule = "[Br-].[Rb+] [rubidium bromide] + O"
measurement_label = "mass density"
u = "kg/m3"
endpoint_value = 1324.9

[[record]]
molecule = "[Cl-].[K+] [potassium chloride] + O"
measurement_label = "mass density"
u = "kg/m3"
endpoint_value = 1115.1

[[record]]
molecule = "[F-].[Rb+] [rubidium fluoride (RbF)] + O"
measurement_label = "mass density"
u = "kg/m3"
endpoint_value = 1241.4

[[record]]
molecule = "[Cl-].[Cs+] [cesium chloride] + O"
measurement_label = "mass density"
u = "kg/m3"
endpoint_value = 1331.2

[[record]]
molecule = "[Cl-].[Rb+] [rubidium chloride] + O"
measurement_label = "mass density"
u = "kg/m3"
endpoint_value = 1227.5

[[record]]
molecule = "[I-].[K+] [potassium iodide] + O"
measurement_label = "mass density"
u = "kg/m3"
endpoint_value = 1306

